measurement-protocol: Turbidity measurement
Type: physicochemical
condition: Table 3; relative to curcumin = 1
experimental-readout: Turbidity (Relative Value)

For orientation, consider the following solved cases.
Ask | Answer with the recorded Turbidity (Relative Value) for the compound listed here: COCOc1cc(/C=C/C(=O)CC(SCC(=O)OC)c2cc(OCOC)cc(OCOC)c2)cc(OCOC)c1 (racemic) [GO-Y136, reference compound]
Reply | 0.083

Ask | Consider the compound COc1cc(/C=C/C(=O)/C=C/c2ccc(O)c(OC)c2)ccc1O [GO-Y022, reference compound] . State its measured Turbidity (Relative Value).
Reply | 0.048

Ask | Answer with the recorded Turbidity (Relative Value) for the compound listed here: COCOc1cc(/C=C/C(=O)CC(SCCOCCOCCOCCOCc2cn([C@@H]3O[C@H](CO)[C@@H](O[C@@H]4O[C@H](CO)[C@H](O)[C@H](O)[C@H]4O)[C@H](O)[C@H]3O)nn2)c2cc(OCOC)cc(OCOC)c2)cc(OCOC)c1 (some centres unmarked)
Reply | 0.0014

Ask | Please give the documented Turbidity (Relative Value) of COCOc1cc(C=CC(=O)CC(SCCOCCOCCOCCOCc2cn(C3OC(CO)C(O)C(O)C3O)nn2)c2cc(OCOC)cc(OCOC)c2)cc(OCOC)c1 (mixture of isomers)
Reply | 0

Ask | Could you please provide reported Turbidity (Relative Value) for COCOc1cc(/C=C/C(=O)CC(SCCOCCOCCOCCOCc2cn([C@@H]3O[C@H](CO)[C@@H](O[C@H]4O[C@H](CO)[C@@H](O)[C@H](O)[C@H]4O)[C@H](O)[C@H]3O)nn2)c2cc(OCOC)cc(OCOC)c2)cc(OCOC)c1 (some centres unmarked) ? Thanks!
Reply | 0

(1) COCOc1cc(/C=C/C(=O)CC(SCCOCCOCCOCCOCc2cn([C@H]3O[C@@H](CO)[C@H](O)[C@@H](O)[C@@H]3O)nn2)c2cc(OCOC)cc(OCOC)c2)cc(OCOC)c1 (some centres unmarked)
(2) COc1cc(/C=C/C(=O)CC(=O)/C=C/c2ccc(O)c(OC)c2)ccc1O [curcumin, reference compound]
Ask | // which entry reports the smaller Turbidity (Relative Value), 1 or 2 ? Reply with the label of the item you choose.
Reply | 1

* * *

Test system: malignant pleural mesothelioma cell line MSTO211H
measurement-protocol: Cell growth inhibitory activity, MSTO211H
Type: cell-based
condition: Table 8
experimental-readout: IC50 (µM)

Previously resolved entries follow.
Ask | Provide measured IC50 value, entry: COCOc1cc(/C=C/C(=O)CC(SCCOCCOCCOCCOCc2cn([C@@H]3O[C@H](CO)[C@@H](O[C@@H]4O[C@H](CO)[C@H](O)[C@H](O)[C@H]4O)[C@H](O)[C@H]3O)nn2)c2cc(OCOC)cc(OCOC)c2)cc(OCOC)c1 (stereo partly shown)
Reply | 2.4

Ask | Identify measured IC50 corresponding to COCOc1cc(/C=C/C(=O)CC(SCCOCCOCCOCCOCc2cn([C@@H]3O[C@H](CO)[C@@H](O[C@H]4O[C@H](CO)[C@@H](O)[C@H](O)[C@H]4O)[C@H](O)[C@H]3O)nn2)c2cc(OCOC)cc(OCOC)c2)cc(OCOC)c1 (stereo partly shown)
Reply | 4.5

(a) COCOc1cc(/C=C/C(=O)CC(SCCOCCOCCOCCOCc2cn([C@H]3O[C@@H](CO)[C@H](O)[C@@H](O)[C@@H]3O)nn2)c2cc(OCOC)cc(OCOC)c2)cc(OCOC)c1 (stereo partly shown)
(b) COCOc1cc(/C=C/C(=O)CC(SCCOCCOCCOCCOCc2cn([C@H]3O[C@H](CO)[C@@H](O)[C@H](O)[C@@H]3O)nn2)c2cc(OCOC)cc(OCOC)c2)cc(OCOC)c1 (stereo partly shown)
Ask | Please let me know which one, a or b , has a lower measured IC50 value. Record your answer as the label of the chosen record.
Reply | b
(b: 0.9 µM, a: 3.9 µM)
